# key: entry, value: (B) hLTBP1, Matrix-associated proTGFb1 (KD)
EXPERIMENTAL_SYSTEM: T1, recombinant human LTBP1-proTGFβ1 complex (Homo sapiens, UniProt P01137)
T1 construct: made in house; host or cells: Expi293F cells, transient co-transfection
T1 sequence (P01137 30-390): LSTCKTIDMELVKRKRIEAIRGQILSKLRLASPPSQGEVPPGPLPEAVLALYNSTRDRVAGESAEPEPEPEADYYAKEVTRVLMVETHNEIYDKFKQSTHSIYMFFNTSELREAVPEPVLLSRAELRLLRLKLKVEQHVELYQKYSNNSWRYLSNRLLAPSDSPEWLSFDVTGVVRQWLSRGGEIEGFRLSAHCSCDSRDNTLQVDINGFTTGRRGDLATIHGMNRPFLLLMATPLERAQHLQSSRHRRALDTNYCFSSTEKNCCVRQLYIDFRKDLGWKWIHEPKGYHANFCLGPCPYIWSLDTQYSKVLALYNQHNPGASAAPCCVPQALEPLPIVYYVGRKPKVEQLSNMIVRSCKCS
T1 sequence (Q14766 873-1507 partner): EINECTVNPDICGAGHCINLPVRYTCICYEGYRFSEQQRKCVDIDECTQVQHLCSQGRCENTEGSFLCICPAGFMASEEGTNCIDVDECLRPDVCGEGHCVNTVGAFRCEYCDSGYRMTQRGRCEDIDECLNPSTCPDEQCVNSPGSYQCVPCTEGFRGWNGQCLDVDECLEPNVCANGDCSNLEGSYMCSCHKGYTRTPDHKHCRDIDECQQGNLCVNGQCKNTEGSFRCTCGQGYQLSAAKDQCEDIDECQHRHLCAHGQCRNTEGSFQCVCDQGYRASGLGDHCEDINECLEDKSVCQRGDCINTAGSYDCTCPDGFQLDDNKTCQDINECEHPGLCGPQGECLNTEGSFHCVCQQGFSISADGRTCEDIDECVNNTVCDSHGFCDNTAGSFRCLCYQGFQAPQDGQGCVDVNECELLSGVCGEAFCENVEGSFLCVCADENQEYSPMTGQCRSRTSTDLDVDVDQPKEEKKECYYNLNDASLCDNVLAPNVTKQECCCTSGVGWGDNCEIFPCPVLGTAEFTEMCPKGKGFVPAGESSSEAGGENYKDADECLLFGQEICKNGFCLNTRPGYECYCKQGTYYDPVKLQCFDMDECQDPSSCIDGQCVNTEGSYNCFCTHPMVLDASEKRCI
ASSAY_SUMMARY: Octet (Biolayer Interferometry) in vitro kinetic binding
RECORDED_CONDITIONS: in M
Give only the figure.

Solved entries (count: 5):
Ab25: monoclonal antibody; VH SEQ ID NO: 133, VL SEQ ID NO: 15 (antibody, V domains shown) VH: EVQLVESGGGLVQPGGSLRLSCAASGFTFGSFSMDWVRQAPGKGLEWVSYISPDASTIYYADSVKGRFTISRDNAKNSLYLQMNSLRAEDTAVYYCARGVLDYGDMLDPWGQGTLVTVSS VL: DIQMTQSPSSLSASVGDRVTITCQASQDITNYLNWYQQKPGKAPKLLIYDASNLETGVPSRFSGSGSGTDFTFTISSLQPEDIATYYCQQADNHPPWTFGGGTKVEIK : 2.17E−10
Ab13: monoclonal antibody; VH SEQ ID NO: 242, VL SEQ ID NO: 243 (antibody, V domains shown) VH: EVQLLESGGGLVQPGGSLRLSCAASGFTFADYAMTWVRQAPGKGLEWVSAISSFASAIYYADSVKGRFTISRDNSKNTLYLQMNSLRAEDTAVYYCARVSSGHWDFDYWGQGTLVTVSS VL: DIQMTQSPSSLSASVGDRVTITCRASQSISSYLNWYQQKPGKAPKLLIYAASSLQSGVPSRFSGSGSGTDFTLTISSLQPEDFATYYCQQVYDPPLTFGGGTKVEIK : 2.76E−10
Ab19: monoclonal antibody; VH SEQ ID NO: 250, VL SEQ ID NO: 241 (antibody, V domains shown) VH: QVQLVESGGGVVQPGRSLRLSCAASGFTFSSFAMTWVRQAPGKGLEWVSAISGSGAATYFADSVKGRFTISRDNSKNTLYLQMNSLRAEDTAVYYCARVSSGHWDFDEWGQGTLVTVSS VL: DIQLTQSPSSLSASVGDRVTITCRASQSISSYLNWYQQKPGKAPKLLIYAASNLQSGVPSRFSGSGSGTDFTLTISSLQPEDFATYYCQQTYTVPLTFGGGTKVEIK : 1.89E−10
Ab12: monoclonal antibody; VH SEQ ID NO: 237, VL SEQ ID NO: 241 (antibody, V domains shown) VH: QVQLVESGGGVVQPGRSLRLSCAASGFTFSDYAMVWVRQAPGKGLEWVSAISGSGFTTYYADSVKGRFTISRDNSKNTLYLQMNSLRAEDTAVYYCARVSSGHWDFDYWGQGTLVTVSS VL: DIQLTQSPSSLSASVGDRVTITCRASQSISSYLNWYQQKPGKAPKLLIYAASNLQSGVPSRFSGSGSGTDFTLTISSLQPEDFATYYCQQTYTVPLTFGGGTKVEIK : 1.57E−10
Ab21: monoclonal antibody; VH SEQ ID NO: 129, VL SEQ ID NO: 15 (antibody, V domains shown) VH: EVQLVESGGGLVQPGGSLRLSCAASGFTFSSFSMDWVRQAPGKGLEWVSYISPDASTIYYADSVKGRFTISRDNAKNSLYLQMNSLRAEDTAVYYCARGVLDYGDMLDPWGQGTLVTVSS VL: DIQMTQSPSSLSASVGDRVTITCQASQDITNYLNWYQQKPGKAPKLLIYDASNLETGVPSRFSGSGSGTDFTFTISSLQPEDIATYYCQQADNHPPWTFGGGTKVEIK : 2.25E−10

Exam item: Given the entry Ab22: monoclonal antibody; VH SEQ ID NO: 130, VL SEQ ID NO: 15 (antibody, V domains shown) VH: EVQLVESGGGLVQPGGSLRLSCAASGFTFGSFSMNWVRQAPGKGLEWVSYIHSDASTIYYADSVKGRFTISRDNAKNSLYLQMNSLRAEDTAVYYCARGVLDYGDMLDPWGQGTLVTVSS VL: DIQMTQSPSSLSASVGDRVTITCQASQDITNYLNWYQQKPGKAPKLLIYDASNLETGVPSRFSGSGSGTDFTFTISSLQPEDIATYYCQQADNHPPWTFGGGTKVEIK , report its measured (B) hLTBP1, Matrix-associated proTGFb1 (KD).
Marked response: 3.18E−10

Exam item: Can you check Ab27: monoclonal antibody; VH SEQ ID NO: 135, VL SEQ ID NO: 15 (antibody, V domains shown) VH: EVQLVESGGGLVQPGGSLRLSCAASGFTFSFYAMNWVRQAPGKGLEWVSYISPDASTIYYADSVKGRFTISRDNAKNSLYLQMNSLRAEDTAVYYCARGVLDYGDMLDPWGQGTLVTVSS VL: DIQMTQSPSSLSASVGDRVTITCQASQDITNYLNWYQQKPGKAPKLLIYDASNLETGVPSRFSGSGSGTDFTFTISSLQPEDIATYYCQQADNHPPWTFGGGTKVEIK next?
Marked response: 1.78E−10

Exam item: Can you check Ab23: monoclonal antibody; VH SEQ ID NO: 131, VL SEQ ID NO: 15 (antibody, V domains shown) VH: EVQLVESGGGLVQPGGSLRLSCAASGFTFSSFSMNWVRQAPGKGLEWVSYISPSADTIYYADSVKGRFTISRDNAKNTLYLQMNSLRAEDTAVYYCARGVLDYGDMLDPWGQGTLVTVSS VL: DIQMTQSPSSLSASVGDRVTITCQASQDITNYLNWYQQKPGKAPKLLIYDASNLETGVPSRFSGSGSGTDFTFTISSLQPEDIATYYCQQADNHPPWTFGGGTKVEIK next?
Marked response: 4.17E−10

Exam item: Can you check Ab33: monoclonal antibody; VH SEQ ID NO: 141, VL SEQ ID NO: 15 (antibody, V domains shown) VH: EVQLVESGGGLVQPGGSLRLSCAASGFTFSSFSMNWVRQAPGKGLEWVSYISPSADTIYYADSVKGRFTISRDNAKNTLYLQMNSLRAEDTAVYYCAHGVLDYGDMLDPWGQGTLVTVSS VL: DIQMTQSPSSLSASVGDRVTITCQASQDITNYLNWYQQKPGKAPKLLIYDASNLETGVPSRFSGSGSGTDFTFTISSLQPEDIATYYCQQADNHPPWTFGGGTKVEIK next?
Marked response: 1.79E−10
